target.entity: Mitogen-activated protein kinase kinase kinase kinase 2 (Homo sapiens) (UniProt Q12851);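 also: reported value is a mean of MAP4K2 inhibition at 1 µM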
Sequence (Q12851 whole entry): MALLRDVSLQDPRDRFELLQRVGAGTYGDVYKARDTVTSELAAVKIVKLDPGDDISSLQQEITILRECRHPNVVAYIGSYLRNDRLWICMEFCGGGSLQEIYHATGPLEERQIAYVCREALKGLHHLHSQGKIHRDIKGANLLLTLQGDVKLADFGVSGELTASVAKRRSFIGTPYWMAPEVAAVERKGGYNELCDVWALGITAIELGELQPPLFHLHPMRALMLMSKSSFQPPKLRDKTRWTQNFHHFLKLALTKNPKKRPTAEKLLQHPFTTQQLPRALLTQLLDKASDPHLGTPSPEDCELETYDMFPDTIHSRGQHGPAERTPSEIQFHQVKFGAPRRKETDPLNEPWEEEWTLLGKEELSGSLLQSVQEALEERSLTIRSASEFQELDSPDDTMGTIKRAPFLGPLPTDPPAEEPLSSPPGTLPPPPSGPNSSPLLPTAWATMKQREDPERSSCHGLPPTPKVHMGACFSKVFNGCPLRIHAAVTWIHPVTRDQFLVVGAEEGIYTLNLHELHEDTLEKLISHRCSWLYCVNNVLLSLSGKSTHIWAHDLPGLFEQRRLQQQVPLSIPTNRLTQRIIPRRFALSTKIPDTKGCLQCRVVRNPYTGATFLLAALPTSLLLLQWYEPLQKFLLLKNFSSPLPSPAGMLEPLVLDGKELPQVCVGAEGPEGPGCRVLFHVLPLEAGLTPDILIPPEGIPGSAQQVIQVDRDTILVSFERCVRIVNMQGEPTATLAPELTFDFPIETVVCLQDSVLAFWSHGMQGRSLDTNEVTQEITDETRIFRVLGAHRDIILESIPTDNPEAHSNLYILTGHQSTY
measurement.conditions: at 1 µM
quantity.kind: inhibition (%)
Give the quantity in %, number only.

Asked: Find the measured inhibition of NC(=O)c1sc(-n2cnc3ccccc32)cc1OCc1ccccc1Br and report it.
Given back: 8.46

Asked: Find the measured inhibition of COc1ccc2ncnc(Nc3ccc(OCc4ccccc4)cc3)c2c1 and report it.
Given back: 1.74

Asked: Find the measured inhibition of O=C1Nc2ccc(-c3cccnc3)cc2C1=Cc1cc(Br)c(O)c(Br)c1 and report it.
Given back: 2.93

Asked: Find the measured inhibition of COc1cccc(-n2nc(C)c3c(N/N=C(\C)c4ccncc4)ncnc32)c1 and report it.
Given back: 0.32

Asked: Find the measured inhibition of Cc1ccc(Nc2ccnc(Nc3cccc(C(N)=O)c3)n2)cc1O and report it.
Given back: 8.97

Asked: Find the measured inhibition of CCOc1nccc2c1nc(-c1nonc1N)n2CC and report it.
Given back: 10.6

Asked: Find the measured inhibition of Cc1ccc2c(c1)/C(=N/Nc1ccc(S(N)(=O)=O)cc1)C(=O)N2 and report it.
Given back: 4.98

Asked: Find the measured inhibition of NC(=O)c1cccc(Nc2nccc(Nc3cccc(F)c3)n2)c1 and report it.
Given back: 14.1

Asked: Find the measured inhibition of CN(C)c1cc2c(Nc3ccc4c(cnn4Cc4ccccc4)c3)ncnc2cn1 and report it.
Given back: 0.49

Asked: Find the measured inhibition of N#Cc1cccc(Nc2nccc(-c3cnn4ncccc34)n2)c1 and report it.
Given back: 45.8

Asked: Find the measured inhibition of N#Cc1c(NC(=O)c2ccccc2F)sc2c1CCCC2 and report it.
Given back: 2.61

Asked: Find the measured inhibition of O=S(=O)(CCOCc1ccc(-c2ccc3ncnc(Nc4ccc(OCc5cccc(F)c5)c(Cl)c4)c3c2)o1)c1ccccc1 and report it.
Given back: 3.12

Asked: Find the measured inhibition of CN1CCN(C(=O)c2ccc(NC(=O)Nc3ccc(N(C)c4ccnc(Nc5ccc(CS(C)(=O)=O)cc5)n4)cc3)cc2)CC1 and report it.
Given back: 32.7

Asked: Find the measured inhibition of Oc1cccc(-c2nc(-c3ccccc3)[nH]c2-c2ccncc2)c1 and report it.
Given back: 4.27

Asked: Find the measured inhibition of COc1cccc(-n2ncc3c(N/N=C/c4ccc(S(C)(=O)=O)cc4)ncnc32)c1 and report it.
Given back: 0.9

Asked: Find the measured inhibition of COc1ccc(-c2nn3ncccc3c2-c2ccnc(Nc3cccc(C(F)(F)F)c3)n2)cc1 and report it.
Given back: 1.6

Asked: Find the measured inhibition of NS(=O)(=O)c1ccc(-c2cc3ccncc3cc2OCc2ccccc2)cc1 and report it.
Given back: 2.03

Asked: Find the measured inhibition of CN(C)CCCn1c(-c2nonc2N)nc2cnccc21 and report it.
Given back: 4.37

Asked: Find the measured inhibition of COC(=O)c1cncc(/C=C/c2c(C)cc(O)cc2C)c1 and report it.
Given back: 4.75

Asked: Find the measured inhibition of NS(=O)(=O)c1ccc(Nc2cc(-c3cccc(O)c3)n[nH]2)cc1 and report it.
Given back: 10.7

Asked: Find the measured inhibition of OCc1ccc(-c2nc(-c3ccccn3)c(-c3ccc4c(c3)OCO4)[nH]2)cc1 and report it.
Given back: 2.87

Asked: Find the measured inhibition of Nc1nccc(-c2c(-c3ccc(F)cc3)nn3cc(C(F)(F)F)ccc23)n1 and report it.
Given back: 1.52
